# maps each entry to its Ki
Biological target: UniProt:P00730
Sequence (P00730 111-419): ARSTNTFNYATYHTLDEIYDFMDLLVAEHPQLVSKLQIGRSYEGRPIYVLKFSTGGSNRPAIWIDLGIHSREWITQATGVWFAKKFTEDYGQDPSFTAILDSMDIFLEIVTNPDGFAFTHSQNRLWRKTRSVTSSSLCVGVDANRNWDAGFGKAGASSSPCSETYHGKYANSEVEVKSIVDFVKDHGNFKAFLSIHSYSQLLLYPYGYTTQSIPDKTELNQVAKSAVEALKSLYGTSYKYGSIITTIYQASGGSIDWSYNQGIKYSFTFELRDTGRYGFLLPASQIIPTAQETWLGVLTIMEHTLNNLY
Assay: Carboxypeptidase A activity assay
Type: biochemical
Conditions: Ki class; compounds tested in 5% DMSO, 12 concentrations
reported.metric: Ki

> print(dat)
                                   compound  endpoint.value
1  CC(C)CC(N[C@@H](Cc1cncn1COCc1ccccc1)C(N)=O)C(=O)O (single isomer, unassigned) [FB]         > 50 µM
2  CC(C)CC(N[C@H](Cc1cncn1C)C(=O)O)C(=O)O (stereo partly shown) [CB]         > 50 µM
3  CC(C)CC(N[C@@H](Cc1cncn1Cc1ccc(C(F)(F)F)cc1)C(=O)O)C(=O)O (stereo partly shown) [GJ]     10 to 50 µM
4  CC(C)CC(NCC(C)C(=O)O)C(=O)O (stereo not shown) [CG]         > 50 µM
5  CC(C)CC(NC(Cc1cncn1Cc1cccc([N+](=O)[O-])c1)C(=O)O)C(=O)O (stereo not shown) [GA]     10 to 50 µM
6  CCC(NC(Cc1c[nH]c2ccccc12)C(=O)O)C(=O)O (stereo not shown) [W]         > 50 µM
7  COC(=O)[C@H](CC(C)C)NC(=O)NCc1ccccc1 [DF]         > 50 µM

====

# maps each entry to its Ki
Biological target: ACE-2 (Homo sapiens)
Construct: a stop codon inserted after the serine immediately preceding the transmembrane domain; made in house; host or cells: CHO K1 cells (transient transfection, purified from conditioned medium)
Sequence (Q9BYF1 18-740 limits assumed): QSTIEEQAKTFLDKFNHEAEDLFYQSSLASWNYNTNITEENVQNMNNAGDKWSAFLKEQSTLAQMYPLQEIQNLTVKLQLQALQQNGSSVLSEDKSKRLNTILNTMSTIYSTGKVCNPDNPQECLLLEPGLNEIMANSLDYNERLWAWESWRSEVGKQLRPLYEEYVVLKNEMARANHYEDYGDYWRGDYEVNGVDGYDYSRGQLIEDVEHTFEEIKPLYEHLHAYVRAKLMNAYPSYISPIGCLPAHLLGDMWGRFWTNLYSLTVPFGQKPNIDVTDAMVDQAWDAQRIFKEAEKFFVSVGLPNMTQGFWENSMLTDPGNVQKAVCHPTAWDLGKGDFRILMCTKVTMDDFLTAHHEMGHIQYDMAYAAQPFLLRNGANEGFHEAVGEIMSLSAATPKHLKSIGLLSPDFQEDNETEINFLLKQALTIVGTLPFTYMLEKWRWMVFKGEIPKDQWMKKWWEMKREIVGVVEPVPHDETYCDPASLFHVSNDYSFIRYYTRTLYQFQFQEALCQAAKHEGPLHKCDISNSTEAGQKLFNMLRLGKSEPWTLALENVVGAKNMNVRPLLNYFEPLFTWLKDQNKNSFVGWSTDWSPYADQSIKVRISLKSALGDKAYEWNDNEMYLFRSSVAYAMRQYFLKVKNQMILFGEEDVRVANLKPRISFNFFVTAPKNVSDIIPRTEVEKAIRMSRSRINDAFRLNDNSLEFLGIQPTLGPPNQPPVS
Test: ACE-2 Competitive Substrate Assay (ACS Assay)
Format: biochemical
Conditions: Ki class per key; compounds tested in 5% DMSO, 12 compound concentrations, 25° C.; Ki=Kiapp/(1+[S]/Km); read-out: Human ACE-2 Activity
reported.metric: Ki

> print(dat)
                                    compound  endpoint.value
 1  CC(C)C[C@H](N[C@@H](Cc1ccc(-c2cccnc2)cc1)C(=O)O)C(=O)O [PJ]        < 100 nM
 2  CC(C)C[C@H](N[C@@H](Cc1ccccc1-c1cc(Cl)cc(Cl)c1)C(=O)O)C(=O)O [PT]   100 to 500 nM
 3  CC(C)C[C@H](N[C@@H](Cc1ccc(-c2ccc3c(c2)OCO3)cc1)C(=O)O)C(=O)O [OZ]        < 100 nM
 4  CC(C)C[C@H](N[C@@H](Cc1cc(-c2ccc(Cl)cc2)on1)C(=O)O)C(=O)O [QU]        < 100 nM
 5  CC(C)C[C@H](N[C@@H](Cc1cc(-c2ccccc2Cl)on1)C(=O)O)C(=O)O [QV]        < 100 nM
 6  CC(C)C[C@H](N[C@@H](Cc1cc(-c2ccc(Cl)c(Cl)c2)on1)C(=O)O)C(=O)O [QL]        < 100 nM
 7  CC(C)C[C@H](N[C@@H](Cc1ccc(OCc2csc3ccc(Cl)cc23)cc1)C(=O)O)C(=O)O [QK]        < 100 nM
 8  CC(C)C[C@H](N[C@@H](Cc1ccc(NC(=O)C(C)(C)C)cc1)C(=O)O)C(=O)O [QS]   100 to 500 nM
 9  CC(C)C[C@H](N[C@@H](Cc1ccc(Oc2cc(F)cc(F)c2)cc1)C(=O)O)C(=O)O [PS]        > 500 nM
10  CC(C)C[C@H](N[C@@H](Cc1ccc(-c2ccc(C(F)(F)F)cc2)cc1)C(=O)O)C(=O)O [PC]        < 100 nM
11  CC(C)C[C@H](N[C@@H](Cc1ccc(C(=O)NC2CCCCC2)cc1)C(=O)O)C(=O)O [QH]        > 500 nM
12  CC(C)C[C@H](N[C@@H](Cc1ccc(C(=O)Nc2cc(Cl)cc(Cl)c2)cc1)C(=O)O)C(=O)O [QE]        < 100 nM
13  CC(C)C[C@H](N[C@@H](Cc1ccc(C(=O)Nc2ccccc2)cc1)C(=O)O)C(=O)O [QF]   100 to 500 nM
14  CCOc1ccnc(-c2ccc(C[C@H](N[C@@H](CC(C)C)C(=O)O)C(=O)O)cc2)c1Cl [QB]        < 100 nM
15  CC(C)C[C@H](N[C@@H](Cc1ccc(-n2cccc2)cc1)C(=O)O)C(=O)O [PO]        > 500 nM
